Observed Ki, system IMPDH human type II (Homo sapiens, UniProt P12268).

>  <MOLECULE>
COc1cc(Nc2nc3ccc(CO)cc3[nH]2)ccc1-c1cnco1

>  <TARGET>
IMPDH human type II (Homo sapiens, UniProt P12268)

>  <Ki>
501 to 5000 nM

$$$$

Notebook entry, IMPDH human type II (Homo sapiens, UniProt P12268) assay: Ki of "COc1cc(Nc2nc3cc(C)c(C)cc3o2)ccc1-c1cnco1" = ?
0.01 to 500 nM

Notebook entry, IMPDH human type II (Homo sapiens, UniProt P12268) assay: Ki of COc1cc(Nc2nc3cc(C)ccc3o2)ccc1-c1cnco1 [Compound 12] = ?
0.01 to 500 nM

Notebook entry, IMPDH human type II (Homo sapiens, UniProt P12268) assay: Ki of "Clc1cc(Nc2nc3ccccc3o2)ccc1-c1cnco1" = ?
501 to 5000 nM

Notebook entry, IMPDH human type II (Homo sapiens, UniProt P12268) assay: Ki of "N#Cc1ccc(Nc2nc3ccccc3o2)cc1Cl" = ?
> 15000 nM

Notebook entry, IMPDH human type II (Homo sapiens, UniProt P12268) assay: Ki of "Cc1ccc(Nc2nc3ccccc3[nH]2)cc1" = ?
> 15000 nM

Notebook entry, IMPDH human type II (Homo sapiens, UniProt P12268) assay: Ki of "COc1ccccc1Nc1nc2ccccc2o1" = ?
> 15000 nM

Notebook entry, IMPDH human type II (Homo sapiens, UniProt P12268) assay: Ki of "c1ccc2oc(Nc3ccc(-c4cnco4)cc3)nc2c1" = ?
> 15000 nM

Notebook entry, IMPDH human type II (Homo sapiens, UniProt P12268) assay: Ki of COc1cc(Nc2nc3cc(C)ccc3o2)ccc1-c1cnco1 [Compound 22] = ?
501 to 5000 nM

Notebook entry, IMPDH human type II (Homo sapiens, UniProt P12268) assay: Ki of "COc1cc(Nc2nc3c(C)cccc3[nH]2)ccc1-c1cnco1" = ?
0.01 to 500 nM

Notebook entry, IMPDH human type II (Homo sapiens, UniProt P12268) assay: Ki of "COc1cc(Nc2nc3ccccc3o2)ccc1-c1cnco1" = ?
0.01 to 500 nM
